EXPERIMENTAL TARGET: Adrenergic receptor alpha-1 (Homo sapiens, UniProt P35348+P25100+P35368)
TEST DETAILS: Displacement of prazosin from Alpha-1 adrenergic receptors of human cerebral cortex homogenate
Type: tissue-based
Catalogue of molecules with associated Ki
MEASUREMENT TYPE: Ki (µM)

- Brc1ccccc1Nc1ncc[nH]1: 11
- COc1cc(C)c(Nc2ncc[nH]2)cc1C(C)(C)C: 16
- COc1ccc(Nc2ncc[nH]2)c(C)c1: 8.4
- COc1c(C(C)(C)C)cc(C)c(Nc2ncc[nH]2)c1C: 4.2
- Cc1c(Nc2ncc[nH]2)ccc2c1NCCO2: 16
- Clc1cccc(Cl)c1Nc1ncc[nH]1: 6
- Cc1c(Nc2ncc[nH]2)ccc2c1OCCO2: 2.1
- Brc1c(NC2=NCCN2)ccc2nccnc12 [BRIMONIDINE]: 1.8
- c1c[nH]c(Nc2ccc3[nH]cnc3c2)n1: 24
- COc1ccc(Nc2ncc[nH]2)c(C)c1OC: 6.6
